Could you please report measured %Inh for the items listed next?
Test system: CAMK1;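 further: KINOMEscan kinase panel screen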
Conditions: concentration: 1 μM,replicates: in singlicate; n = 1
API: value field is a number in %; no unit string.

Ask | What %Inh value was documented for this compound, Cc1n[nH]c2ccc(-c3cc(OC[C@@H](N)Cc4ccccc4)cnc3-c3ccoc3)cc12.O=C(O)C(F)(F)F.O=C(O)C(F)(F)F ?
Reply | 15

Ask | What %Inh value was documented for this compound, O=C(NCCNc1ccnc(NCc2ccc(F)cc2)n1)c1cc2ccccc2s1 ?
Reply | 0

Ask | What %Inh value was documented for this compound, CC(C)Nc1cc(-c2ccc3c(N)n[nH]c3c2)nc(N)n1 ?
Reply | 24

Ask | What %Inh value was documented for this compound, Cc1occc1-c1nc(N)c(OC[C@@H](N)Cc2c[nH]c3ccccc23)cc1-c1cc2c(C)n[nH]c2cn1 ?
Reply | 23
